system: Nucleic Acid; assay: Thermal denaturation in sonicated poly(dA)-poly(dT) homopolymer (AT); format: nucleic-acid assay
Here, each record is paired with measured Tm data.
Remember to follow the number with its unit.

{"Smiles repr": "N=C(N)c1ccc2[nH]c(Cc3nc4ccccc4[nH]3)nc2c1", "Tm": "1.3 °C"}
{"Smiles repr": "N=C(N)c1ccc2[nH]c(-c3cccc(-c4nc5cc(C(=N)N)ccc5[nH]4)c3)nc2c1", "Tm": "34.6 °C"}
{"Smiles repr": "c1cc2[nH]c(Cc3nc4cc(C5=NCCN5)ccc4[nH]3)nc2cc1C1=NCCN1", "Tm": "13.5 °C"}

Recorded Tm of CC[n+]1c(-c2ccccc2)c2cc(N)ccc2c2ccc(N)cc21 , please. 9.9 °C

Next up: N=C(N)c1ccc2nc(Cc3nc4ccc(C(=N)N)cc4[nH]3)[nH]c2c1 9.2 °C

Follow-up item: N=C(N)c1ccc2[nH]c(CCCc3nc4cc(C(=N)N)ccc4[nH]3)nc2c1 30.6 °C

Also need N=C(N)c1ccc2c(ccn2CCCn2ccc3cc(C(=N)N)ccc32)c1 , thanks. 19.2 °C

Same question, CC(C)NC(=N)c1ccc2[nH]c(/C=C/c3nc4cc(C(=N)NC(C)C)ccc4[nH]3)nc2c1 this time 31.6 °C

How about this compound: Cc1cc(-c2nc3cc(C(=N)N)ccc3[nH]2)c(C)cc1-c1nc2cc(C(=N)N)ccc2[nH]1 29 °C

Input CNc1ccc2[nH]c(CCc3nc4cc(NC)ccc4[nH]3)nc2c1 34.2 °C

Let us now turn to c1ccc2[nH]c(CCc3nc4ccccc4[nH]3)nc2c1 2.1 °C

Same question, C/C(=C(/C)c1nc2cc(C(=N)N)ccc2[nH]1)c1nc2cc(C(=N)N)ccc2[nH]1 this time 17.3 °C

Another: N=C(N)c1ccc(OCCCCCOc2ccc(C(=N)N)cc2)cc1 22.9 °C

What do you get for c1cc2[nH]c(CCc3nc4cc(N5CCOCC5)ccc4[nH]3)nc2cc1N1CCOCC1 ? 0.9 °C

Please do the same for Nc1ccc2nc(CCc3nc4ccc(N)cc4[nH]3)[nH]c2c1 as well. 3 °C

Now try N=C(N)c1ccc2[nH]c(CCCCCc3nc4cc(C(=N)N)ccc4[nH]3)nc2c1 . 24.7 °C

What do you have for OC/C=N\c1ccc2[nH]c(CCc3nc4cc(/N=C/CO)ccc4[nH]3)nc2c1 ? 4.5 °C

And c1cc2[nH]c(CCc3nc4cc(C5=NCCCN5)ccc4[nH]3)nc2cc1C1=NCCCN1 ? 45.1 °C

// repeat for N=C(N)c1ccc2c(ccn2Cc2ccc(Cn3ccc4cc(C(=N)N)ccc43)cc2)c1 and report 10.8 °C

// query: N=C(N)c1ccc2[nH]c(CCCCCCc3nc4cc(C(=N)N)ccc4[nH]3)nc2c1 34 °C

----------
tested on: Nucleic Acid; experiment: Thermal denaturation in sonicated poly(dA)-poly(dT) homopolymer (AT); type: nucleic-acid assay
Parameter threshold = 30 °C. Response is Satisfied when Tm meets or exceeds it, else Not satisfied.

Example cases with answers are listed next.
{"Smiles repr": "c1cc2[nH]c(CCCc3nc4cc(C5=NCCN5)ccc4[nH]3)nc2cc1C1=NCCN1", "Test system": "Nucleic Acid", "Assigned class": "Not satisfied"}
{"Smiles repr": "N=C(N)c1ccc2c(ccn2Cc2cccc(Cn3ccc4cc(C(=N)N)ccc43)c2)c1", "Test system": "Nucleic Acid", "Assigned class": "Not satisfied"}
{"Smiles repr": "N=C(N)c1ccc(-c2cc3ccc(C(=N)N)cc3[nH]2)cc1", "Test system": "Nucleic Acid", "Assigned class": "Satisfied"}
{"Smiles repr": "N=C(N)c1ccc2[nH]c(CCCCc3nc4cc(C(=N)N)ccc4[nH]3)nc2c1", "Test system": "Nucleic Acid", "Assigned class": "Satisfied"}
{"Smiles repr": "CC(C)NC(=N)c1ccc2[nH]c(-c3ccc(-c4nc5cc(C(=N)NC(C)C)ccc5[nH]4)cc3)nc2c1", "Test system": "Nucleic Acid", "Assigned class": "Satisfied"}

Okay, next one:
Is Tm for N=C(N)c1ccc2c(ccn2CCCCn2ccc3cc(C(=N)N)ccc32)c1 at or above 30 °C? Not satisfied

----------
Below, each of the compounds is paired with its reported Tm value.
tested on: Nucleic Acid; test: Thermal denaturation in sonicated poly(dA)-poly(dT) homopolymer (AT); format: nucleic-acid assay
Quick note: number first, unit second.

These recorded examples may help you get a feel for the data.
{"Smiles repr": "CC(C)NC(=N)c1ccc2[nH]c(CCc3nc4cc(C(=N)NC(C)C)ccc4[nH]3)nc2c1", "Tm": "37.3 °C"}
{"Smiles repr": "Cn1cc(NC(=O)c2cc(NC(=O)CNC(=N)N)cn2C)cc1C(=O)NCCC(=N)N", "Tm": "46.6 °C"}
{"Smiles repr": "N=C(N)c1ccc2[nH]c(CCCCCCCCc3nc4cc(C(=N)N)ccc4[nH]3)nc2c1", "Tm": "22.8 °C"}
{"Smiles repr": "N=C(N)c1ccc2[nH]c(CCc3nc4cc(C(=N)N)ccc4[nH]3)nc2c1", "Tm": "42.4 °C"}
{"Smiles repr": "c1cc2[nH]c(CCCCc3nc4cc(C5=NCCN5)ccc4[nH]3)nc2cc1C1=NCCN1", "Tm": "34.5 °C"}

Value lookup for Tm; key = N=C(N)c1ccc2c(ccn2CCCCCCn2ccc3cc(C(=N)N)ccc32)c1 17.7 °C

Then N=C(N)c1ccc2c(ccn2CCCCCn2ccc3cc(C(=N)N)ccc32)c1 ? 15.3 °C

What do we get for C1=NCCCN1Cc1ccc2[nH]c(CCc3nc4cc(CN5C=NCCC5)ccc4[nH]3)nc2c1 ? 30.7 °C

Param item: N=C(N)c1ccc2[nH]c(/C=C/c3nc4cc(C(=N)N)ccc4[nH]3)nc2c1 46.1 °C

----------
test system: Nucleic Acid; assay: Ratio between poly-dAdT and poly-dGdC binding; type: nucleic-acid assay
Reported property: Ratio
Could you keep your reply to the number by itself?

{"Smiles repr": "N=C(N)c1ccc2[nH]c(/C=C/c3nc4cc(C(=N)N)ccc4[nH]3)nc2c1", "Ratio": 7}
{"Smiles repr": "N=C(N)c1ccc2[nH]c(CCCCCCc3nc4cc(C(=N)N)ccc4[nH]3)nc2c1", "Ratio": 8}
{"Smiles repr": "c1cc2[nH]c(Cc3nc4cc(C5=NCCN5)ccc4[nH]3)nc2cc1C1=NCCN1", "Ratio": 3}

Query (molecule): C/C(=C(/C)c1nc2cc(C(=N)N)ccc2[nH]1)c1nc2cc(C(=N)N)ccc2[nH]1 ; field requested: Ratio 3

Input N=C(N)c1ccc2[nH]c(CCCCc3nc4cc(C(=N)N)ccc4[nH]3)nc2c1 9

// same read-out, input: N=C(N)c1ccc2c(ccn2Cc2cccc(Cn3ccc4cc(C(=N)N)ccc43)c2)c1 2.3

What about Cn1cc(NC(=O)c2cc(NC(=O)CNC(=N)N)cn2C)cc1C(=O)NCCC(=N)N ? 32

Same for c1cc2[nH]c(CCc3nc4cc(C5=NCCCN5)ccc4[nH]3)nc2cc1C1=NCCCN1 15

Queued: CNc1ccc2[nH]c(CCc3nc4cc(NC)ccc4[nH]3)nc2c1 4

And the next one, N=C(N)c1ccc(-c2cc3ccc(C(=N)N)cc3[nH]2)cc1 ? 6

Do the same for N=C(N)c1ccc2c(ccn2CCCCCn2ccc3cc(C(=N)N)ccc32)c1 please 2.6

// same read-out, input: N=C(N)c1ccc2nc(Cc3nc4ccc(C(=N)N)cc4[nH]3)[nH]c2c1 3

What about this molecule? CN1CCN(c2ccc3[nH]c(-c4ccc5[nH]c(-c6ccc(O)cc6)nc5c4)nc3c2)CC1 10

Further, for N=C(N)c1ccc2[nH]c(-c3ccc(-c4nc5cc(C(=N)N)ccc5[nH]4)cc3)nc2c1 ? 7

Lookup CC(C)NC(=N)c1ccc2[nH]c(CCc3nc4cc(C(=N)NC(C)C)ccc4[nH]3)nc2c1 10

Likewise for CC[n+]1c(-c2ccccc2)c2cc(N)ccc2c2ccc(N)cc21 ? 3

Same for N=C(N)c1ccc2[nH]c(CCCCCc3nc4cc(C(=N)N)ccc4[nH]3)nc2c1 5

----------
test system: Calf thymus DNA; assay: Thermal denaturation in sonicated calf thymus DNA (CT DNA); format: nucleic-acid assay; settings: Bos taurus
Reported property: Tm (°C)
# number only, unit °C dropped from output

See these solved cases before continuing.
{"Smiles repr": "c1cc2[nH]c(CCc3nc4cc(C5=NCCN5)ccc4[nH]3)nc2cc1C1=NCCN1", "Test system": "Calf thymus DNA", "Unit descriptor": "°C", "Tm": 18.5}
{"Smiles repr": "c1cc2[nH]c(CCCc3nc4cc(C5=NCCN5)ccc4[nH]3)nc2cc1C1=NCCN1", "Test system": "Calf thymus DNA", "Unit descriptor": "°C", "Tm": 9.9}
{"Smiles repr": "N=C(N)c1ccc2c(ccn2CCCCCn2ccc3cc(C(=N)N)ccc32)c1", "Test system": "Calf thymus DNA", "Unit descriptor": "°C", "Tm": 10.2}
{"Smiles repr": "N=C(N)c1ccc2c(ccn2CCCCCCn2ccc3cc(C(=N)N)ccc32)c1", "Test system": "Calf thymus DNA", "Unit descriptor": "°C", "Tm": 10.5}
{"Smiles repr": "CNc1ccc2[nH]c(CCc3nc4cc(NC)ccc4[nH]3)nc2c1", "Test system": "Calf thymus DNA", "Unit descriptor": "°C", "Tm": 12.8}
{"Smiles repr": "N=C(N)c1ccc2c(ccn2Cc2ccc(Cn3ccc4cc(C(=N)N)ccc43)cc2)c1", "Test system": "Calf thymus DNA", "Unit descriptor": "°C", "Tm": 9.3}
{"Smiles repr": "c1cc2[nH]c(CCCCc3nc4cc(C5=NCCN5)ccc4[nH]3)nc2cc1C1=NCCN1", "Test system": "Calf thymus DNA", "Unit descriptor": "°C", "Tm": 15.3}
{"Smiles repr": "c1cc2[nH]c(Cc3nc4cc(C5=NCCN5)ccc4[nH]3)nc2cc1C1=NCCN1", "Test system": "Calf thymus DNA", "Unit descriptor": "°C", "Tm": 6.9}

Provide value of Tm for this record tested with Calf thymus DNA: N=C(N)c1ccc2[nH]c(CCc3nc4cc(C(=N)N)ccc4[nH]3)nc2c1 18.5

Also CC(C)NC(=N)c1ccc2[nH]c(CCc3nc4cc(C(=N)NC(C)C)ccc4[nH]3)nc2c1 ? 19.2
